Value source: patent US11787775B2

Study target: TEAD4 (Homo sapiens (Human))
Test: TEAD lipid pocket TR-FRET (Lipid HTRF) probe competition assay
Type: binding
Test context: 30 mins incubation with compound; read-out: Lipid HTRF TEAD4 IC50
pIC50: −log10 of the molar value.
# binarize pIC50: threshold 7 inclusive, high side yes, low side no

C=C(CNc1cc(-c2ccc(OC(F)(F)F)cc2)c2c(c1C#N)CCO2)C(=O)O [Compound 18]	yes
C=C(CNc1cc(-c2ccc(C(C)C)cc2)c2c(c1C(N)=O)CCO2)C(=O)O [Compound 34]	no

**Query** Given the entry C=C(CNc1cc(-c2ccc(C(C)C)cc2)c2c(c1C#N)CCO2)C(=O)OC [Compound 8] , answer whether its pIC50 meets or surpasses 7.
**Result** yes

**Query** Given the entry C=C(CNc1cc(-c2ccc(C(C)C(F)(F)F)cc2)c2c(c1C#N)CCO2)C(=O)O (single isomer, unassigned) [Enantiomer D from Example 16] , answer whether its pIC50 meets or surpasses 7.
**Result** yes

**Query** Given the entry C=C(CNc1cc(-c2ccc(C(C)(F)F)cc2)c2ncsc2c1C#N)C(=O)O [Compound 24] , answer whether its pIC50 meets or surpasses 7.
**Result** no

**Query** Given the entry C=C(CNc1cc2c(c(-c3ccc(C(C)C)cc3)c1)OCC2)C(=O)O [Compound 1] , answer whether its pIC50 meets or surpasses 7.
**Result** yes

**Query** Given the entry C=C(CNc1cc(-c2ccc(C(C)C)cn2)c2c(c1C#N)CCO2)C(=O)O [Compound 47] , answer whether its pIC50 meets or surpasses 7.
**Result** no

**Query** Given the entry C=C(CNc1cc(-c2ccc(C(C)C)cc2)c2c(c1CO)CCO2)C(N)=O [Compound 13] , answer whether its pIC50 meets or surpasses 7.
**Result** no

---

Study target: TEAD3 (Homo sapiens (Human))
Sequence (Q99594 whole entry, species assumed): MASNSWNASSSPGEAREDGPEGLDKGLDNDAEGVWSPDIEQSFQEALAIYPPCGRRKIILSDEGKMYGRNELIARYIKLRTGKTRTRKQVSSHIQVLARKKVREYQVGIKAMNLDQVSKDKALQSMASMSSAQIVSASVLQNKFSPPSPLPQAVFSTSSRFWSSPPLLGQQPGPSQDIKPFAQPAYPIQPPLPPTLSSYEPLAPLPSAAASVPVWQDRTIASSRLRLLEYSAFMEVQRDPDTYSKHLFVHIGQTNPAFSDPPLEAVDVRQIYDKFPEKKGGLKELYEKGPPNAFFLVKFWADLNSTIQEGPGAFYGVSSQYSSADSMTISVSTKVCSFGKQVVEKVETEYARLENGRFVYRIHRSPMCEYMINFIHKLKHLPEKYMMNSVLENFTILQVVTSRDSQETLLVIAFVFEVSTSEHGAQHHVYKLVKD
Test: TEAD lipid pocket TR-FRET (Lipid HTRF) probe competition assay
Format: binding
Test context: 30 mins incubation with compound
# IC50 annotations
Quick reminder: number only, in µM, skip the unit.

Guide cases for IC50, answers given:
C=C(CNc1cc(-c2ccc(C(C)C)cc2)c2c(c1CO)CCO2)C(=O)NO	2.4
C=C(CNc1cc2c(c(-c3ccc(C(C)C)cc3)c1)OCC2)C(N)=O	18
C=C(CNc1cc(-c2ccc(C(C)C)cc2)c2c(c1F)CCO2)C(=O)O	4
C=C(CNc1cc(-c2ccc(C(C)C)cc2)c2c(c1CO)CCO2)C(=O)O	47

**Query** Any idea what its IC50 is? The molecule is "C=C(CNc1cc(-c2ccc(OC(F)(F)F)cc2)c2c(c1C#N)CCO2)C(=O)O"
**Result** 2.5

**Query** Any idea what its IC50 is? The molecule is "C=C(CNc1cc(-c2ccc(C(C)C)cc2F)c2c(c1C#N)CCO2)C(=O)O"
**Result** 5.9

---

# EC50 annotations
Study target: TEAD4 YAP50-100 (Homo sapiens (Human), UniProt Q15561)
Sequence (Q15561 217-434): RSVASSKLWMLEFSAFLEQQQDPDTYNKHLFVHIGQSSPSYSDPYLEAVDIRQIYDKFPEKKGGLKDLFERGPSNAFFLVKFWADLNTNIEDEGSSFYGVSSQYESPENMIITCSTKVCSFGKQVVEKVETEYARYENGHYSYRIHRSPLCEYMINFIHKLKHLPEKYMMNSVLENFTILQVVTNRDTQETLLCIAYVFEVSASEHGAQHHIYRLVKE
Test: TEAD-YAP protein-protein interaction HTRF assay
Test context: TEAD4 YAP50-100 HTRF combined EC50, 30 mins incubation with compound
Quick reminder: number only, in nM, skip the unit.

C=C(CNc1cc(-c2ccc(C(C)C)cn2)c2c(c1C#N)CCO2)C(=O)O [Compound 47]	3400
C=C(CNc1cc(-c2ccc(C(C)C)cc2)c2c(c1S(C)(=O)=O)CCO2)C(=O)O [Compound 50]	2000
C=C(CNc1cc(-c2ccc(C(C)C)cc2)c2c(c1C#N)CCO2)C(C)=O [Compound 11]	80

Now for the compound whose EC50 we want.
**Query** Any idea what its EC50 is? The compound is C=C(CNc1cc2c(c(-c3ccc(C(C)C)cc3)c1)OCC2)C(N)=O [Compound 2]
**Result** 90

---

Study target: TEAD2 (Homo sapiens (Human), UniProt Q15562)
Sequence (Q15562 whole entry): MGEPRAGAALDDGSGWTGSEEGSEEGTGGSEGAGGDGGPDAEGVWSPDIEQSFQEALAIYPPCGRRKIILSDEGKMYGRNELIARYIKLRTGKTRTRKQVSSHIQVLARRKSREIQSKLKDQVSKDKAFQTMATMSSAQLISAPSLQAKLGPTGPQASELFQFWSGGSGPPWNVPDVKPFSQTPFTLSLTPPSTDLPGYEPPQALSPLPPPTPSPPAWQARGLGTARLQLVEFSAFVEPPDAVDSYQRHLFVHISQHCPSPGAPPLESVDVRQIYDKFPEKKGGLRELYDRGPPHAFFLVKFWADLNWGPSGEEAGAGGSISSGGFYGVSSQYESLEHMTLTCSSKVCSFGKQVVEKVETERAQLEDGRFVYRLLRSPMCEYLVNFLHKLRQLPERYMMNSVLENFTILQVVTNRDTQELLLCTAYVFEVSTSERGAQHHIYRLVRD
Test: TEAD lipid pocket TR-FRET (Lipid HTRF) probe competition assay
Format: binding
Test context: 30 mins incubation with compound; read-out: Lipid HTRF TEAD2 IC50
pIC50: −log10 of the molar value.
# binarize pIC50: threshold 7 inclusive, high side T, low side F

The following molecules have reported results that may help.
C=C(CNc1cc(-c2ccc(C(C)C)cc2)c2c(c1CO)CCO2)C(=O)O	F
C=C(CN(C)c1cc(-c2ccc(C(C)C)cc2)c2c(c1C#N)CCO2)C(=O)O	F
C=C(CNc1cc2c(c(-c3ccc(C(C)C)cc3)c1)OCC2)C(=O)O	F
C=C(CNc1cc(-c2ccc(C(C)C)cc2)c2c(c1C#N)CCO2)C(=O)O	T
C=C(CNc1cc(-c2ccc(C(C)C)cc2)c2c(c1C(N)=O)CCO2)C(=O)O	F

**Query** Given the entry "C=C(CNc1cc(-c2ccc(C(C)(F)F)cc2)c2c(c1C#N)CCO2)C(=O)O" , answer whether its pIC50 meets or surpasses 7.
**Result** F

**Query** Given the entry "C=C(CNc1cnc(OC)c(/C=C/[C@H]2CC[C@H](C(F)(F)F)CC2)c1)C(=O)O" , answer whether its pIC50 meets or surpasses 7.
**Result** F

**Query** Given the entry "C=C(CNc1cc(-c2ccc(C(C)C)cc2)c2c(c1C#N)CCO2)C(=O)OC" , answer whether its pIC50 meets or surpasses 7.
**Result** T

**Query** Given the entry "C=C(CNc1cc(-c2ccc(C(C)(F)F)cc2)c2ncsc2c1C#N)C(=O)O" , answer whether its pIC50 meets or surpasses 7.
**Result** F

---

Study target: TEAD1 YAP50-100 (Homo sapiens (Human))
Test: TEAD-YAP protein-protein interaction HTRF assay
Test context: TEAD1 YAP50-100 HTRF combined EC50, 30 mins incubation with compound
# EC50 annotations
Quick reminder: number only, in nM, skip the unit.

Guide cases for EC50, answers given:
C=C(CNc1cc(-c2ccc(C(C)C(F)(F)F)cc2)c2c(c1C#N)CCO2)C(=O)O (single isomer, unassigned) [Enantiomer C from Example 16]	10
C=C(CNc1nc(-c2ccc(C(C)C)cc2)c2c(c1C#N)CCO2)C(=O)O [Compound 22]	60
C=C(CNc1cc(-c2ccc(C(C)C)cc2)c2c(c1CO)CCO2)C(=O)O [Compound 12]	780
C=C(CNc1cc(-c2ccc(C(C)C)cc2)c2c(c1C#N)CCO2)C(=O)N(C)C [Compound 6]	970
C=C(CNc1cc(-c2ccc(C(C)C)cc2F)c2c(c1C#N)CCO2)C(=O)O [Compound 30]	30

**Query** Any idea what its EC50 is? The molecule is C=C(CNc1cc(-c2ccc(C(C)C)cc2)c2c(c1C#N)CCO2)C(=O)O [Compound 3]
**Result** 20

---

Study target: TEAD1 YAP50-100 (Homo sapiens (Human), UniProt P28347)
Sequence (P28347 209-426): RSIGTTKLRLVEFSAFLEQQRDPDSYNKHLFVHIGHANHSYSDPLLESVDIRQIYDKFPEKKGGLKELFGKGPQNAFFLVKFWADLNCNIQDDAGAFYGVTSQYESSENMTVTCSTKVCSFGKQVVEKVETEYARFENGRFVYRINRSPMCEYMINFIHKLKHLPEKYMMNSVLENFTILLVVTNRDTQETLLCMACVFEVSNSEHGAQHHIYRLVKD
Test: TEAD-YAP protein-protein interaction HTRF assay
Test context: TEAD1 YAP50-100 HTRF combined EC50, 30 mins incubation with compound
# pEC50 annotations
Answer as the number alone; pEC50 is minus log10 of concentration in mol/L.

C=C(CNc1cc(-c2ccc(C(C)C)cc2)c2c(c1C#N)CCO2)B(O)O	5.24

Now for the compound whose pEC50 we want.
**Query** Any idea what its pEC50 is? The compound is "C=C(CNc1cc(-c2ccc(C(C)C)cc2)c2c(c1C#N)CCO2)C(C)=O"
**Result** 6.49

---

# IC50 annotations
Study target: TEAD4 (Homo sapiens (Human), UniProt Q15561)
Sequence (Q15561 whole entry, species assumed): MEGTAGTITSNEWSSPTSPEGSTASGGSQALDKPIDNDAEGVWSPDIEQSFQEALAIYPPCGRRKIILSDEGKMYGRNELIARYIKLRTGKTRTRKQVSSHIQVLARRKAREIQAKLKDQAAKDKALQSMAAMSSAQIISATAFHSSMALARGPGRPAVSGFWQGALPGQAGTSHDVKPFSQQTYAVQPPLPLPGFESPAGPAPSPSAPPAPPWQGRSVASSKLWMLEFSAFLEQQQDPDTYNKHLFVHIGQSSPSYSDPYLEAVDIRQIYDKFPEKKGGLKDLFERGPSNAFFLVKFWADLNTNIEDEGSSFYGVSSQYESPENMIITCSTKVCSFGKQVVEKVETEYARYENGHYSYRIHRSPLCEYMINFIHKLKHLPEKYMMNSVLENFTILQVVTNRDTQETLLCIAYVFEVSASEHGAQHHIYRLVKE
Test: TEAD lipid pocket TR-FRET (Lipid HTRF) probe competition assay
Type: binding
Test context: 30 mins incubation with compound; read-out: Lipid HTRF TEAD4 IC50
Quick reminder: number only, in nM, skip the unit.

Guide cases for IC50, answers given:
C=C(CNc1cc(-c2ccc(C(C)C)cc2)c2c(c1C#N)CCO2)C(=O)NO	120
C=C(CNc1cc(-c2ccc(C(C)C)cc2)c2c(c1C#N)CCO2)B(O)O	1300
C=C(CNc1cc(-c2ccc(C(C)C)cc2)c2c(c1C#N)CCO2)C(=O)NC	1300

Now for the compound whose IC50 we want.
**Query** Kindly state the measured IC50 obtained for "C=C(CNc1cc(-c2ccc(C(C)C)cc2)c2c(c1S(C)(=O)=O)CCO2)C(=O)O" with TEAD4 (Homo sapiens (Human), UniProt Q15561).
**Result** 590

---

Study target: TEAD4 (Homo sapiens (Human), UniProt Q15561)
Test: TEAD lipid pocket TR-FRET (Lipid HTRF) probe competition assay
Assay type: binding
Test context: 30 mins incubation with compound; read-out: Lipid HTRF TEAD4 IC50
Note to self: IC50 under 40 nM means yes (1), ties and anything higher get no (0).

C=C(CNc1cc(-c2ccc(C(C)C)cc2)c2c(c1C#N)CCO2)C(=O)N(C)C	no (0)
C=C(CNc1cc(-c2ccc(C(C)C)cc2)c2c(c1CO)CCO2)C(=O)O	no (0)
C=C(CNc1cc(-c2ccc(C(C)C(F)(F)F)cc2)c2c(c1C#N)CCO2)C(=O)O (single isomer, unassigned) [Enantiomer C from Example 16]	yes (1)
C=C(CNc1cc(-c2ccc(C(C)C)cc2)c2c(c1C#N)CCO2)C(=O)O	yes (1)
C=C(CNc1cc(-c2ccc(OC(F)(F)F)cc2)c2ncsc2c1C#N)C(N)=O	no (0)
C=C(CNc1cc2c(c(-c3ccc(C(C)C)cc3)c1)OCC2)C(N)=O	yes (1)

Lab note: next compound to report on.
**Query** Threshold test, IC50 < 40 nM: "C=C(CNc1cc(-c2ccc(C(C)C)cc2)c2c(c1C#N)CCO2)C(N)=O"
**Result** no (0)
